Hello, the source for this data is patent US20210275683A1, in case you need it.

# Lookup of reported EC50 keyed by entry
Biological target: T1, human Nectin-4 on transfected HEK-293 cells (human, UniProt Q96NY8 32-510)
T1 construct: whole, on cells; also called HEK-293 cells transfected with human Nectin-4; Nectin-4-expressing HEK-293 cells
T1 sequence (looked up): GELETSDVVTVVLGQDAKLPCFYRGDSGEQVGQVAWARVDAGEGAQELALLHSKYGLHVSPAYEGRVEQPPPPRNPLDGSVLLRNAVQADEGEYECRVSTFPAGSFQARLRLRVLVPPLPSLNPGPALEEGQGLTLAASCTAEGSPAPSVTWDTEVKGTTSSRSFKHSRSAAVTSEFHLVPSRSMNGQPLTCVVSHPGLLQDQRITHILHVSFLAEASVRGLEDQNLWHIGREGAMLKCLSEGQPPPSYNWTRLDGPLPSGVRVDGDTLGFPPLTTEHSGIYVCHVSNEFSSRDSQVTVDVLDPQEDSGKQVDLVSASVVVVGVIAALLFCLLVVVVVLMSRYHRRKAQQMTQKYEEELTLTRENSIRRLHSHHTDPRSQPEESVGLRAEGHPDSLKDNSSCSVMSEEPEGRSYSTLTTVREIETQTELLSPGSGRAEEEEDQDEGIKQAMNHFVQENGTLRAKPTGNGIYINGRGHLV
Assay: flow cytometry on HEK-293 cells transfected with human Nectin-4, anti-huIgG1-PE secondary, MFI (Geo Mean)
Numeric only. Scale: µg/mL

Suppose we examine the binder hzD6.2C-Compound 2.14 (anti-Nectin-4-TLR8 agonist immunoconjugate) (antibody, V domains shown, hzD6.2C conjugated to linker-TLR8 agonist Compound 2.14) VH: EVQLVESGGGLVQPGGSLRLSCAASGFTFSNYDMSWVRQAPGKGLEWVATISSGGSYTYYVDSVKGRFTISRDNAKNSLYLQMNSLRAEDTAVYYCARQELGSYYAMDYWGQGTTVTVSS VL: DIVMTQTPLSLPVTPGEPASISCRSSQSIVHSNANTYLEWYLQKPGQSPQLLIYKVSNRFSGVPDRFSGSGSGTDFTLKISRVEAEDVGVYYCFQGSHVPYTFGGGTKVEIKR ; what EC50 value has been reported? 0.034

Suppose we examine the binder D6C parental chimeric anti-Nectin-4 antibody (D6C IgG1) (antibody, V domains shown, Called the parental chimeric antibody; also called chimeric D6C) VH: EVMLVESGGALVKPGGSLKLSCVASGFTFSNYDMSWVRQTPEKRLEWVATISSGGSYTYYVDSVKGRFTISRDNARNTLHLQMSSLRSKDTAMYYCARQELGSYYAMDYWGQGTSVTVSS VL: DVVMTQTPLSLPVSLGDQASISCRSSQSIVHSNGNTYLEWYLQKPGQSPKLLIYKVSNRFSGVPDRFSGSGSGTDFTLKISRVEAEDLGVYYCFQGSHVPYTFGGGTKLEIK ; what EC50 value has been reported? 0.03

Suppose we examine the binder humanized D6C mAb with hzD6.1C VL (I2V), human IgG1 / human kappa (antibody, V domains shown, also called hzD6.IC) VH: EVQLVESGGGLVQPGGSLRLSCAASGFTFSNYDMSWVRQAPGKGLEWVATISSGGSYTYYVDSVKGRFTISRDNAKNSLYLQMNSLRAEDTAVYYCARQELGSYYAMDYWGQGTTVTVSS VL: DVVMTQTPLSLPVTPGEPASISCRSSQSIVHSNGNTYLEWYLQKPGQSPQLLIYKVSNRFSGVPDRFSGSGSGTDFTLKISRVEAEDVGVYYCFQGSHVPYTFGGGTKVEIKR ; what EC50 value has been reported? 0.02

Suppose we examine the binder hzD6.1C-Compound 2.14 (anti-Nectin-4-TLR8 agonist immunoconjugate) (antibody, V domains shown, hzD6.1C conjugated to linker-TLR8 agonist Compound 2.14) VH: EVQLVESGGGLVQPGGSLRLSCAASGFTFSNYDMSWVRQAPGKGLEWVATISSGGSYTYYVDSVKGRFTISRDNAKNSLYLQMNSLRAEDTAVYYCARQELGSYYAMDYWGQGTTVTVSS VL: DVVMTQTPLSLPVTPGEPASISCRSSQSIVHSNGNTYLEWYLQKPGQSPQLLIYKVSNRFSGVPDRFSGSGSGTDFTLKISRVEAEDVGVYYCFQGSHVPYTFGGGTKVEIKR ; what EC50 value has been reported? 0.069

Suppose we examine the binder humanized D6C mAb with hzD6.2C VL (G34A), human IgG1 / human kappa (antibody, V domains shown, also called hzD6.2C mAb) VH: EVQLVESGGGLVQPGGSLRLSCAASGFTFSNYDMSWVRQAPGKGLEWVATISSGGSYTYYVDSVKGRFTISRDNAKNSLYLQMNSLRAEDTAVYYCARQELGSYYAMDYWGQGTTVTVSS VL: DIVMTQTPLSLPVTPGEPASISCRSSQSIVHSNANTYLEWYLQKPGQSPQLLIYKVSNRFSGVPDRFSGSGSGTDFTLKISRVEAEDVGVYYCFQGSHVPYTFGGGTKVEIKR ; what EC50 value has been reported? 0.014

Suppose we examine the binder D6C IgG1-Compound 2.14 (parental antibody TLR8 agonist conjugate) (antibody, V domains shown, IgG1) VH: EVMLVESGGALVKPGGSLKLSCVASGFTFSNYDMSWVRQTPEKRLEWVATISSGGSYTYYVDSVKGRFTISRDNARNTLHLQMSSLRSKDTAMYYCARQELGSYYAMDYWGQGTSVTVSS VL: DVVMTQTPLSLPVSLGDQASISCRSSQSIVHSNGNTYLEWYLQKPGQSPKLLIYKVSNRFSGVPDRFSGSGSGTDFTLKISRVEAEDLGVYYCFQGSHVPYTFGGGTKLEIK ; what EC50 value has been reported? 0.049
